Where do the numbers come from? From paper PMC5479578.

Target: T1, NHERF1 PDZ1 domain (1-140) (human, UniProt O14745 1-140)
T1 sequence (looked up): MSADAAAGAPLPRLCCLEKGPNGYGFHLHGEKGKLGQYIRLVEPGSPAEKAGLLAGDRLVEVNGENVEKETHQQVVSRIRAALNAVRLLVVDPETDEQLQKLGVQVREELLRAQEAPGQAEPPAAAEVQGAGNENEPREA
Assay: fluorescence polarisation
Ends that are not written are not given here. * marks the point of attachment. FITC = O=C1OC2(c3ccc(O)cc3Oc3cc(O)ccc32)c2ccc(NC(=S)*)cc21
endpoint name: Kd (nM)
# output: bare number, implied unit nM

Exercise: Quick one: Kd of {FITC}-LQEEWETVM [FITC-labeled carboxy-terminal PTHR 9-residue peptide] ?
Solution: 1000
